# targetUnderTest: human DGKα (Homo sapiens (Human))
# experiment: DGKα LIPGLO assay (extruded liposome substrate, ADP-Glo luminescence)
# Assay type: biochemical
# testContext: liposome assay; read-out: DGK alpha LIPGLO IC50
observable: IC50 (nM)

C[C@@H]1CN(c2nc(=O)n(C)c3ccc(C#N)nc23)[C@@H](C)CN1C(c1ccc(F)cc1)c1csc(C(F)(F)F)n1 (single isomer, unassigned) [Example 171]	1560

a: CC(c1ccc(F)cc1F)N1C[C@H](C)N(c2nc(=O)n(C)c3ccc(C#N)nc23)C[C@H]1C (single isomer, unassigned) [Example 145]
b: CC[C@H]1CN(C(C)c2ccc(OC(F)(F)F)cc2)[C@H](CC)CN1c1nc(=O)n(C)c2ccc(C#N)nc12 (single isomer, unassigned) [Example 10]
input: Lower value for measured IC50? Options: a , b Your answer should be the label attached to the chosen record.
output: b

* * *

# targetUnderTest: UniProtKB Q13574
# experiment: DGKζ LIPGLO assay (extruded liposome substrate, ADP-Glo luminescence)
# Assay type: biochemical
# testContext: liposome assay; read-out: DGK zeta LIPGLO IC50
observable: IC50 (nM)

These solved cases illustrate the format of a correct answer.
CCC(c1ccc(CN2CCOCC2)cc1)N1C[C@H](CC)N(c2nc(=O)n(C)c3ccc(C#N)nc23)C[C@H]1CC (stereo partly drawn) [Example 268]	4060
CC[C@H]1CN(C(C)c2ccc(OC(F)(F)F)c(F)c2)[C@H](CC)CN1c1nc(=O)n(C)c2ccc(C#N)nc12 (single isomer, unassigned) [Example 31]	960
CC[C@@H]1CN(c2nc(=O)n(C)c3ccc(C#N)nc23)[C@@H](CC)CN1Cc1ccc2c(c1)OC(F)(F)O2 [Example 13]	230

a: C[C@H]1CN(C(c2ccc(F)cc2)c2ccc(C(F)(F)F)cn2)[C@H](CO)CN1c1nc(=O)n(C)c2ccc(C#N)nc12 (single isomer, unassigned) [Example 182]
b: C[C@@H]1CN(c2nc(=O)n(C)c3ccc(C#N)nc23)[C@@H](C)CN1Cc1ccc(F)c(F)c1 [Example 133]
input: // compare measured IC50 between a and b ; output the lower one Respond using the label that marks the chosen record.
output: b

* * *

# targetUnderTest: human DGKα (Homo sapiens (Human))
# experiment: DGKα LIPGLO assay (extruded liposome substrate, ADP-Glo luminescence)
# Format: biochemical
# testContext: liposome (LIPGLO) assay; read-out: DGK alpha (liposome assay) IC50
pIC50: −log10 of the molar value.
observable: pIC50

C[C@@H]1CN(c2nc(=O)n(C)c3ccc(C#N)nc23)[C@@H](C)CN1C(c1ccc(Cl)cc1)c1ccc(Cl)cc1 [Example 373]	6.07

P: CC(c1ccc(OC(C)(C)C#N)cc1)N1C[C@H](C)N(c2nc(=O)n(C)c3ccc(C#N)nc23)C[C@H]1C (stereo partly drawn) [Example 377]
Q: CC(c1ccc(OC(C)(C)C#N)cc1)N1C[C@H](C)N(c2nc(=O)n(C)c3ccc(C#N)nc23)C[C@H]1C (stereo partly drawn) [Example 376]
R: CC(c1ccc(C(F)(F)F)cc1)N1C[C@H](C)N(c2nc(=O)n(C)c3ccc(Cl)nc23)C[C@H]1CN=[N+]=[N-] (stereo partly drawn) [Example 402]
S: COC(=O)NC[C@@H]1CN(c2nc(=O)n(C)c3ccc(C#N)nc23)[C@@H](C)CN1C(C)c1ccc(C(F)(F)F)cc1 (stereo partly drawn) [Example 405]
T: C[C@@H]1CN(c2nc(=O)n(C)c3ccc(C#N)nc23)[C@@H](C)CN1C(c1ccc(F)cc1)c1ccc(C#N)cc1 (stereo partly drawn) [Example 375]
input: List items by pIC50 in falling order. Ranked list of labels, please, in the requested order.
output: Q, P, T, S, R
(Q: 7.52, P: 6.62, T: 5.86, S: 4.87, R: 4.31)

* * *

# targetUnderTest: human DGKα (Homo sapiens (Human), UniProt P23743)
# Sequence (P23743 whole entry, looked up): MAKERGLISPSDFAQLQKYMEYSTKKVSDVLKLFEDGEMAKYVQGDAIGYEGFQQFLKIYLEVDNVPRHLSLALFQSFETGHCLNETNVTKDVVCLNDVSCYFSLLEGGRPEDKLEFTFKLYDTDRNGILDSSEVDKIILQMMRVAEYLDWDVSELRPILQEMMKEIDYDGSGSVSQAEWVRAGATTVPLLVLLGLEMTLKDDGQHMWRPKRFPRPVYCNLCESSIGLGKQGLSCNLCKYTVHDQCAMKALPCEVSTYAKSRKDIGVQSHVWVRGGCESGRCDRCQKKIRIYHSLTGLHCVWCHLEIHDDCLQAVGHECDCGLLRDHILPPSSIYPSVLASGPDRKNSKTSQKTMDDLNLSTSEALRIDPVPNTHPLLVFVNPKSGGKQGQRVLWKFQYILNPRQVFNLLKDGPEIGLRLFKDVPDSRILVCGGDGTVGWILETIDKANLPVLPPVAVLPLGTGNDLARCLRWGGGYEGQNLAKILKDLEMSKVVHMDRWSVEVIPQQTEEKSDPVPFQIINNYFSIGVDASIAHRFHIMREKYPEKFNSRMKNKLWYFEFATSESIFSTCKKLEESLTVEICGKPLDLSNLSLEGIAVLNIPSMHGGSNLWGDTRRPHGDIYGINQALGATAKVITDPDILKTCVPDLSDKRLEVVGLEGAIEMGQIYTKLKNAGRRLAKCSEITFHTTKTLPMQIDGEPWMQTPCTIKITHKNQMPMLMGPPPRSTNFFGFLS
# experiment: DGKα ADPGLO assay (detergent/lipid micelle substrate)
# Assay type: biochemical
# testContext: ADPGLO assay; read-out: DGK alpha ADPGLO IC50
# Experimental: DGK Alpha ADPGLO (Truncated) IC50 (uM) The detergent/lipid micelle was prepared by combining 15 g phosphatidylserine (Avanti 840035P) and 1 g diacylglycerol (8008110) and dissolving into 150 mL chloroform in a 2 L round bottom flask. Chloroform was removed under high vacuum by rotary evaporation. […] The lipid/detergent solution was split into 5 mL aliquots and stored at −80° C.
observable: IC50 (nM)

Below, each entry is followed by its recorded IC50 result.
CCC(c1ccc(OCc2nccs2)cc1)N1C[C@H](C)N(c2nc(=O)n(C)c3ccc(C#N)nc23)C[C@H]1CC (stereo partly shown) [Example 348]	61
CCOc1ccc(CN2C[C@H](C)N(c3nc(=O)n(C)c4ccc(C#N)nc34)C[C@H]2CC)cc1 [Example 310]	77
CCC(c1ccc(C(F)(F)F)cc1)N1C[C@H](CC)N(c2nc(=O)[nH]c3ccc(C#N)nc23)C[C@H]1CC (stereo partly shown) [Example 416]	140
CC[C@H]1CN(C(C)c2ccc(C(F)(F)F)cc2)[C@H](CC)CN1c1nc(=O)n(C)c2ccc(OCCOC)nc12 (stereo partly shown) [Example 433]	125000
CCC(c1ccc(OCC2CCOCC2)cc1)N1C[C@H](C)N(c2nc(=O)n(C)c3ccc(C#N)nc23)C[C@H]1CC (stereo partly shown) [Example 337]	81

a: CCC(c1ccc(OC(C)C)cc1)N1C[C@H](C)N(c2nc(=O)n(C)c3ccc(C#N)nc23)C[C@H]1CC (stereo partly shown) [Example 333]
b: CCC(c1c(F)cc(OCC2CC2)cc1F)N1C[C@H](C)N(c2nc(=O)n(C)c3ccc(C#N)nc23)C[C@H]1CC (stereo partly shown) [Example 328]
input: // compare measured IC50 between a and b ; output the lower one Kindly state the label of the option you pick.
output: a

* * *

# targetUnderTest: human DGKζ (Homo sapiens (Human))
# Sequence (Q13574 other isoform, or with tags, fused parts or gaps): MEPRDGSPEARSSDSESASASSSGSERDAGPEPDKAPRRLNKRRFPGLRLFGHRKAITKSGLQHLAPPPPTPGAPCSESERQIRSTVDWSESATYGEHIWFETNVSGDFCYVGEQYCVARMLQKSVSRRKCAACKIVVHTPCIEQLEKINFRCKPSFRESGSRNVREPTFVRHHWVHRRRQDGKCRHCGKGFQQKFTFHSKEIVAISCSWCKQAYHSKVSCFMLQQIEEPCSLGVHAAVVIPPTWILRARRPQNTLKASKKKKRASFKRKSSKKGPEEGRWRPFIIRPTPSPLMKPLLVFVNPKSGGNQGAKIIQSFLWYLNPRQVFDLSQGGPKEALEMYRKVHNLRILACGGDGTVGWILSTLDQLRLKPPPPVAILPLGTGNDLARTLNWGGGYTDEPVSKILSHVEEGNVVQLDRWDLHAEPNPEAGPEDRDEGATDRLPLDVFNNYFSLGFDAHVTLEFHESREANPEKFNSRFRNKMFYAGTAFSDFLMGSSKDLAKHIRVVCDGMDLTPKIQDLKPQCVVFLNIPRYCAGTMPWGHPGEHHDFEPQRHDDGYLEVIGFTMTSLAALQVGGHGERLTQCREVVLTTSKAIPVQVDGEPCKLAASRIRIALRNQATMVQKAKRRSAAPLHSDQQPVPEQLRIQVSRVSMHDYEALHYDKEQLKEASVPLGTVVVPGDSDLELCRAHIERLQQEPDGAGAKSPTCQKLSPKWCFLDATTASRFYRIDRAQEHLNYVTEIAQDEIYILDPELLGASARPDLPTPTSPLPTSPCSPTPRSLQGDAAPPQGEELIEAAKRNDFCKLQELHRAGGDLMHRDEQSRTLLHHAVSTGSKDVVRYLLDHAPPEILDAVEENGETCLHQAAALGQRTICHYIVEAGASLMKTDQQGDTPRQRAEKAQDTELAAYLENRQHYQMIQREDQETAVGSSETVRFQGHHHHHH
# experiment: DGKζ LIPGLO assay (extruded liposome substrate, ADP-Glo luminescence)
# Type: biochemical
# testContext: liposome assay; read-out: DGK zeta LIPGLO IC50
observable: IC50 (nM)

Example cases with answers are listed next.
CCC(c1ccc(OC(F)(F)F)cc1)N1C[C@H](C)N(c2nc(=O)n(C)c3ccc(C#N)nc23)C[C@H]1C (single isomer, unassigned) [Example 154]	370
CC[C@@H]1CN(c2nc(=O)n(C)c3ccc(C#N)nc23)[C@@H](C)CN1C(C)c1ccc(OCC2CC2)cc1F (single isomer, unassigned) [Example 69]	14
CCC(c1ccc(OC(F)F)cc1)N1C[C@H](CC)N(c2nc(=O)n(C)c3ccc(C#N)nc23)C[C@H]1CC (stereo partly drawn) [Example 222]	17
CC(c1ccc(C(F)(F)F)cc1)N1C[C@H](C)N(c2nc(=O)n(C)c3ccc(C#N)nc23)C[C@H]1C (single isomer, unassigned) [Example 140]	360
CC[C@@H]1CN(c2nc(=O)n(C)c3ccc(C#N)nc23)[C@@H](C)CN1C(C)c1ccc(C2CC2)cc1 (single isomer, unassigned) [Example 64]	760

I: CCOC(=O)[C@H]1C[C@@H]1Oc1ccc(C(C)N2C[C@H](CC)N(c3nc(=O)n(C)c4ccc(C#N)nc34)C[C@H]2CC)cc1 (stereo partly drawn) [Example 259]
II: CC[C@@H]1CN(c2nc(=O)n(C)c3ccc(C#N)nc23)[C@@H](C)CN1C(C)c1ccc(OC(C)C)cc1 (single isomer, unassigned) [Example 53]
input: # min-compare on IC50 between I and II // return label of chosen record
output: II
(II: 79 nM, I: 1800 nM)

P: CC[C@@H]1CN(c2nc(=O)n(C)c3ccc(C#N)nc23)[C@@H](C)CN1C(c1ccc(F)cc1)c1cccc(C(F)(F)F)n1 (single isomer, unassigned) [Example 65]
Q: CC[C@H]1CN(C(C)c2ccc3c(c2)OC(F)(F)O3)[C@H](CC)CN1c1nc(=O)n(C)c2ccc(C#N)nc12 (single isomer, unassigned) [Example 14]
R: CC(c1ccc(Cl)cc1F)N1C[C@H](C)N(c2nc(=O)n(C)c3ccc(C#N)nc23)C[C@H]1C (single isomer, unassigned) [Example 147]
S: CCOC(=O)[C@H]1C[C@@H]1Oc1ccc(C(C)N2C[C@H](CC)N(c3nc(=O)n(C)c4ccc(C#N)nc34)C[C@H]2CC)cc1 (stereo partly drawn) [Example 260]
input: Arrange these 4 compounds in increasing order of IC50. Would you mind listing the labels in the order requested?
output: Q, P, R, S

* * *

# targetUnderTest: human DGKα (Homo sapiens (Human), UniProt P23743)
# experiment: DGKα ADPGLO assay (detergent/lipid micelle substrate)
# Type: biochemical
# testContext: ADPGLO assay; read-out: DGK alpha ADPGLO IC50
pIC50: −log10 of the molar value.
observable: pIC50

CCC(c1ccc(OCC2COC2)cc1)N1C[C@H](C)N(c2nc(=O)n(C)c3ccc(C#N)nc23)C[C@H]1CC (stereo partly shown) [Example 342]	5.96
CC[C@H]1CN(C(C)c2ccc(C(F)(F)F)cc2)[C@H](CC)CN1c1nc(=O)n(C)c2ccc(COC)nc12 (single isomer, unassigned) [Example 424]	3.94
CCC(c1ccc(OCC2CN(C)C2)cc1)N1C[C@H](C)N(c2nc(=O)n(C)c3ccc(C#N)nc23)C[C@H]1CC (stereo partly shown) [Example 343]	6.13
CC[C@@H]1CN(c2nc(=O)n(C)c3ccc(C(F)F)nc23)[C@@H](C)CN1C(C)c1ccc(C(F)(F)F)cc1 (stereo partly shown) [Example 442]	6.55
CCC(C1CC1)N1C[C@H](C)N(c2nc(=O)n(C)c3ccc(C#N)nc23)C[C@H]1C (stereo partly shown) [Example 453]	3.67

a: CCC(C1CCC(F)(F)CC1)N1C[C@H](C)N(c2nc(=O)n(C)c3ccc(C#N)nc23)C[C@H]1C (stereo partly shown) [Example 459]
b: [2H]C([2H])([2H])n1c(=O)nc(N2C[C@@H](CC)N(C(C)c3ccc(C(F)(F)F)cc3)C[C@@H]2C)c2nc(Cl)ccc21 (single isomer, unassigned) [Example 418]
c: CC(c1ccc(C(F)(F)F)cc1)N1C[C@H](CO)N(c2nc(=O)n(C)c3ccc(C#N)nc23)C[C@H]1C (single isomer, unassigned) [Example 407]
d: CCC(c1ccc(OCC2CCOCC2)cc1)N1C[C@H](C)N(c2nc(=O)n(C)c3ccc(C#N)nc23)C[C@H]1CC (stereo partly shown) [Example 338]
input: Arrange items by their pIC50 values in increasing order. A ranking is expressed here by listing the labels in the requested order.
output: a, d, c, b
(a: 4.53, d: 6.04, c: 6.40, b: 7.04)

A: CC[C@@H]1CN(c2nc(=O)n(C)c3ccc(C#N)nc23)[C@@H](C)CN1C(c1ccc(F)cc1)c1cccc(C(F)F)n1 (stereo partly shown) [Example 315]
B: CCC(c1ccc(OCC2COC2)cc1)N1C[C@H](C)N(c2nc(=O)n(C)c3ccc(C#N)nc23)C[C@H]1CC (stereo partly shown) [Example 341]
C: CCC(C1CC1)N1C[C@H](C)N(c2nc(=O)n(C)c3ccc(C#N)nc23)C[C@H]1C (stereo partly shown) [Example 455]
D: CC[C@@H]1CN(c2nc(=O)n(C)c3ccc(C#N)nc23)[C@@H](C)CN1C(C)c1ccc(C(F)(F)F)c(C#N)c1 (single isomer, unassigned) [Example 357]
input: Hello, I need these entries ordered by pIC50, highest reading first. Thanks! Answer format: the labels, ordered as requested.
output: A, B, D, C

I: CC[C@@H]1CN(c2nc(=O)[nH]c3ccc(C#N)nc23)[C@@H](C)CN1C(C)c1ccc(C(F)(F)F)cc1 (single isomer, unassigned) [Example 413]
II: CCC(C1CC(F)(F)C1)N1C[C@H](C)N(c2nc(=O)n(C)c3ccc(C#N)nc23)C[C@H]1C (stereo partly shown) [Example 457]
III: CCC1CN(c2nc(=O)n(C)c3ccc(C#N)nc23)[C@@H](C)CN1C(C)c1ccc(C(F)(F)F)c(CN2CCOCC2)c1 (single isomer, unassigned) [Example 351]
IV: CCC(c1ccc(OCCC2CC2)cc1)N1C[C@H](C)N(c2nc(=O)n(C)c3ccc(C#N)nc23)C[C@H]1CC (stereo partly shown) [Example 340]
input: Hey, quick one: sort these by pIC50, low to high? Order the labels as requested and list them.
output: IV, II, I, III

a: CCC[C@@H]1CN(c2nc(=O)n(C)c3ccc(C#N)nc23)[C@@H](C)CN1C(C)c1ccc(C(F)(F)F)cc1 (single isomer, unassigned) [Example 395]
b: CCC(c1ccc(C2CC2)cc1F)N1C[C@H](C)N(c2nc(=O)n(C)c3ccc(C#N)nc23)C[C@H]1C (stereo partly shown) [Example 380]
input: // compare measured pIC50 between a and b ; output the lower one Answer format: the label of the selected item.
output: a

a: CC(c1ccc(CN2CCOC(C)(C)C2)cc1)N1C[C@H](C)N(c2nc(=O)n(C)c3ccc(C#N)nc23)C[C@H]1C (single isomer, unassigned) [Example 385]
b: [2H]C([2H])([2H])n1c(=O)nc(N2C[C@@H](CC)N(C(C)c3ccc(C(F)(F)F)cc3)C[C@@H]2C)c2nc(C#N)ccc21 (single isomer, unassigned) [Example 420]
input: Endpoint returns the identifier whose pIC50 is numerically larger, either a or b . Choose, then provide that item's label.
output: a

A: CCOC[C@@H]1CN(c2nc(=O)n(C)c3ccc(C#N)nc23)[C@@H](C)CN1C(CC)c1ccc(C(F)(F)F)cc1 (stereo partly shown) [Example 401]
B: CCC(N1C[C@H](C)N(c2nc(=O)n(C)c3ccc(C#N)nc23)C[C@H]1C)C12CC(C(F)(F)F)(C1)C2 (single isomer, unassigned) [Example 448]
input: Hey, between A and B which has a smaller measured pIC50? Please respond with the label that marks your chosen entry.
output: B
(B: 4.87, A: 6.80)

I: CC[C@@H]1CN(c2nc(=O)n(C)c3ccc(C#N)nc23)[C@@H](C)CN1C(C)c1ccc(C2(C#N)CC2)cc1 (stereo partly shown)
II: CCC(c1ccc(OCC2CN(C)C2)cc1)N1C[C@H](C)N(c2nc(=O)n(C)c3ccc(C#N)nc23)C[C@H]1CC (stereo partly shown) [Example 344]
input: Which value of pIC50 is smaller, the one for I or the one for II ? When you have decided, please share the label of that item.
output: II

These entries and their values trace back to patent US11584747B2.
